What GI50 was measured for each of the following?
# Tested on: EKVX NSCLC
# Protocol details: NCI tumour cell line growth inhibition, 48 h

Item: N#C[Se]CCN1C(=O)C2C(C1=O)[C@H]1C=C[C@@H]2S1 (stereo partly drawn) | GI50: 1.83 µM

Item: Cc1ccc(-c2cc3c4c(nc5ccccc53)C(=O)c3cccnc3-c4n2)cc1 | GI50: 23.4 µM

Item: CCCc1cc(=O)n2c(C(=O)Nc3cccc(C(=O)OCC)c3)c(C(=O)Nc3ccc(F)cc3)sc2n1 | GI50: > 140 µM

Item: COc1ccc2cc(C(=O)/C=C/c3ccc(N(C)C)cc3)ccc2c1 | GI50: 21 µM

Item: CC[C@@]1(O)C(=O)OCc2c1cc1n(c2=O)Cc2cc3cccc([N+](=O)[O-])c3nc2-1 | GI50: 96.9 µM

Item: O=C([O][Hg][CH2]C1OCCOC1[CH2][Hg][O]C(=O)c1ccccc1)c1ccccc1 (stereo not drawn) | GI50: 18.3 µM

Item: COCCNc1ccc2c3c(cccc13)C(=O)N(CCN(C)C)C2=O | GI50: 6.23 µM

Item: O=c1[nH]c(=O)c2cc3cc(C4CC(O)C(CO)O4)ccc3cc2[nH]1 (stereo not drawn) | GI50: > 100 µM
